So I've got a bunch of molecules here, and I need their Toxicity Assay % Fluor (CTB cell viability fluorescence) values.
Form entry: value (%) — number only.

Query: GET Toxicity Assay % Fluor (CTB cell viability fluorescence) | system: Clone V cells | item: "COc1ccc2c(c1OC)N=C(NC(=O)c1cccnc1)N1CCN=C21"
Response: 101.53

Query: GET Toxicity Assay % Fluor (CTB cell viability fluorescence) | system: Clone V cells | item: "Cn1cc(/C=C2\C(=O)Nc3cccnc32)c2ccccc21"
Response: 107.67

Query: GET Toxicity Assay % Fluor (CTB cell viability fluorescence) | system: Clone V cells | item: "Cc1nc2sccn2c(=O)c1CCN1CCC(=C(c2ccccc2)c2ccc(F)cc2)CC1"
Response: 113.72

Query: GET Toxicity Assay % Fluor (CTB cell viability fluorescence) | system: Clone V cells | item: "Nc1ccccc1NC(=O)c1ccc(CNC(=O)OCc2cccnc2)cc1"
Response: 101.17

Query: GET Toxicity Assay % Fluor (CTB cell viability fluorescence) | system: Clone V cells | item: "O=c1[nH]nc(Sc2ncc([N+](=O)[O-])s2)n1-c1ccc2c(c1)OCCO2"
Response: 82.79

Query: GET Toxicity Assay % Fluor (CTB cell viability fluorescence) | system: Clone V cells | item: "NC(=O)c1ccc2[nH]ccc2c1"
Response: 104.03

Query: GET Toxicity Assay % Fluor (CTB cell viability fluorescence) | system: Clone V cells | item: "CC(C)[C@H](NS(=O)(=O)c1ccc(-c2ccc(Br)cc2)cc1)C(=O)O"
Response: 105.53

Query: GET Toxicity Assay % Fluor (CTB cell viability fluorescence) | system: Clone V cells | item: Cl.N[C@@H](Cc1ccc(N(CCCl)CCCl)cc1)C(=O)O [Melphalan hydrochloride]
Response: 107.21

Query: GET Toxicity Assay % Fluor (CTB cell viability fluorescence) | system: Clone V cells | item: "NS(=O)(=O)c1nn2cc(-c3ccccc3)nc2s1"
Response: 105.28

* * *

So I've got a bunch of compounds here, and I need their Toxicity Assay Z-score values.
Tested on: Clone V cells
Conditions: human, 16 h, 30 µM
Counter-ions that a name gives are not always drawn.
Number only, please.

Query: Indicate the recorded Toxicity Assay Z-score value for this compound: CC(C)(C#N)c1cc(Cn2cncn2)cc(C(C)(C)C#N)c1 [Anastrozole]
Response: -0.65

Query: Indicate the recorded Toxicity Assay Z-score value for this compound: O=c1[nH]c(=O)n([C@H]2C[C@H](O)[C@@H](CO)O2)cc1F [Floxuridine, reference compound]
Response: -1.38

Query: Indicate the recorded Toxicity Assay Z-score value for this compound: CN(NC(=O)CC(=O)NN(C)C(=S)c1ccccc1)C(=S)c1ccccc1 [ELESCLOMOL]
Response: -3.57

Query: Indicate the recorded Toxicity Assay Z-score value for this compound: FC(F)c1nc2ccccc2n1-c1nc(N2CCOCC2)nc(N2CCOCC2)n1 [ZSTK474]
Response: -0.61

Query: Indicate the recorded Toxicity Assay Z-score value for this compound: Cc1nc(Nc2ncc(C(=O)Nc3c(C)cccc3Cl)s2)cc(N2CCN(CCO)CC2)n1 [DASATINIB]
Response: -2.26

Query: Indicate the recorded Toxicity Assay Z-score value for this compound: CC1=C(/C=C/C(C)=C/C=C/C(C)=C/C(=O)O)C(C)(C)CCC1 [Tretinoin]
Response: -1.78

Query: Indicate the recorded Toxicity Assay Z-score value for this compound: Cn1cc(C2=C(c3cn(C4CCN(Cc5ccccn5)CC4)c4ccccc34)C(=O)NC2=O)c2ccccc21 [ENZASTAURIN]
Response: -0.68

Query: Indicate the recorded Toxicity Assay Z-score value for this compound: Cc1[nH]c(/C=C2\C(=O)Nc3ccc(S(=O)(=O)N(C)c4cccc(Cl)c4)cc32)c(C)c1C(=O)N1CCN(C)CC1 [SU 11274]
Response: -0.32

Query: Indicate the recorded Toxicity Assay Z-score value for this compound: Cc1ccc(-c2cc(C(F)(F)F)nn2-c2ccc(S(N)(=O)=O)cc2)cc1 [Celecoxib]
Response: -1.66

Query: Indicate the recorded Toxicity Assay Z-score value for this compound: C[C@]12CC[C@H](O)CC1=CC[C@@H]1[C@@H]2CC[C@]2(C)C(c3cccnc3)=CC[C@@H]12 [Abiraterone]
Response: -2.19

Query: Indicate the recorded Toxicity Assay Z-score value for this compound: O=C(c1ccc(OCCN2CCCCC2)cc1)c1c(-c2ccc(O)cc2)sc2cc(O)ccc12 [Raloxifene]
Response: -1.27

Query: Indicate the recorded Toxicity Assay Z-score value for this compound: COc1cccc2c1C(=O)c1c(O)c3c(c(O)c1C2=O)C[C@@](O)(C(C)=O)C[C@@H]3O[C@H]1C[C@H](N)[C@H](O)[C@H](C)O1 [Daunorubicin hydrochloride]
Response: -2.62

Query: Indicate the recorded Toxicity Assay Z-score value for this compound: O=C(CCBr)N1CCN(C(=O)CCBr)CC1 [Pipobroman]
Response: -0.27

Query: Indicate the recorded Toxicity Assay Z-score value for this compound: CO[C@@H]1[C@H](N(C)C(=O)c2ccccc2)C[C@H]2O[C@]1(C)n1c3ccccc3c3c4c(c5c6ccccc6n2c5c31)C(=O)NC4 [PKC412]
Response: -2.25

Query: Indicate the recorded Toxicity Assay Z-score value for this compound: Cn1cc(C2=C(c3ccc(Cl)cc3Cl)C(=O)NC2=O)c2ccccc21 [SB 216763]
Response: 0.20

Query: Indicate the recorded Toxicity Assay Z-score value for this compound: COc1cc2c(Oc3ccc4[nH]c(C)cc4c3F)ncnc2cc1OCCCN1CCCC1 [CEDIRANIB]
Response: -1.94

Query: Indicate the recorded Toxicity Assay Z-score value for this compound: CN1CCN(c2ccc3nc(-c4c(N)c5c(F)cccc5[nH]c4=O)[nH]c3c2)CC1 [CHIR 258]
Response: -2.64

Query: Indicate the recorded Toxicity Assay Z-score value for this compound: COc1cccc2c1C(=O)c1c(O)c3c(c(O)c1C2=O)C[C@@](O)(C(=O)CO)C[C@@H]3O[C@H]1C[C@H](N)[C@@H](O)[C@H](C)O1 [Epirubicin hydrochloride]
Response: -1.93

Query: Indicate the recorded Toxicity Assay Z-score value for this compound: Nc1nc(F)nc2c1ncn2[C@@H]1O[C@H](COP(=O)(O)O)[C@@H](O)[C@@H]1O [Fludarabine phosphate]
Response: -0.65

Query: Indicate the recorded Toxicity Assay Z-score value for this compound: COc1cc2ncnc(Nc3cccc(Br)c3)c2cc1OC [PD 153035]
Response: -0.20

Query: Indicate the recorded Toxicity Assay Z-score value for this compound: Cn1c(=O)n(-c2ccc(C(C)(C)C#N)cc2)c2c3cc(-c4cnc5ccccc5c4)ccc3ncc21 [BEZ 235]
Response: -1.31

Query: Indicate the recorded Toxicity Assay Z-score value for this compound: CN(C)Cc1c(C(=O)NCCOc2ccc(C(=O)NO)cc2)oc2ccccc12 [PCI-24781]
Response: -0.91

Query: Indicate the recorded Toxicity Assay Z-score value for this compound: Cc1cn(-c2cc(NC(=O)c3ccc(C)c(Nc4nccc(-c5cccnc5)n4)c3)cc(C(F)(F)F)c2)cn1 [Nilotinib]
Response: -2.07

Query: Indicate the recorded Toxicity Assay Z-score value for this compound: COc1cc2ncn(-c3cc(OCc4ccccc4C(F)(F)F)c(C(N)=O)s3)c2cc1OC [GW 843682X]
Response: 0.90

Query: Indicate the recorded Toxicity Assay Z-score value for this compound: COc1cc([C@@H]2c3cc4c(cc3[C@@H](O[C@@H]3O[C@@H]5CO[C@@H](C)O[C@H]5[C@H](O)[C@H]3O)[C@H]3COC(=O)[C@H]23)OCO4)cc(OC)c1O [Etoposide]
Response: -1.61

Query: Indicate the recorded Toxicity Assay Z-score value for this compound: O=C(/C=C/c1ccc(CN(CCO)CCc2c[nH]c3ccccc23)cc1)NO [NVP LAQ824]
Response: -0.17

Query: Indicate the recorded Toxicity Assay Z-score value for this compound: N#Cc1ccc(C(c2ccc(C#N)cc2)n2cncn2)cc1 [Letrozole]
Response: -0.88

Query: Indicate the recorded Toxicity Assay Z-score value for this compound: CC(C)C[C@H](NC(=O)[C@H](Cc1ccccc1)NC(=O)c1cnccn1)B(O)O [BORTEZOMIB]
Response: -1.51

Query: Indicate the recorded Toxicity Assay Z-score value for this compound: CCN(CCO)CCCOc1ccc2c(Nc3cc(CC(=O)Nc4cccc(F)c4)[nH]n3)ncnc2c1 [AZD1152-HQPA]
Response: -0.94

Query: Indicate the recorded Toxicity Assay Z-score value for this compound: COC1=CC(c2cc3ccccc3[nH]2)=N/C1=C\c1[nH]c(C)cc1C [OBATOCLAX]
Response: -1.76

Query: Indicate the recorded Toxicity Assay Z-score value for this compound: CC(=O)Nc1cccc(-n2c(=O)n(C3CC3)c(=O)c3c(Nc4ccc(I)cc4F)n(C)c(=O)c(C)c32)c1 [Trametinib]
Response: -1.01

Query: Indicate the recorded Toxicity Assay Z-score value for this compound: CN(C)C(=N)N=C(N)N [METFORMIN]
Response: -1.25
